The measured values listed here are drawn from paper PMC5078989.

System: panel of cancer cell lines
PROCEDURE_DETAILS: Cell viability (CellTiter-Glo) dose-response across cancer cell line panel;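 further: after 72 h compound incubation with CellTiter-Glo ATP readout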
Assay type: cell-based, human
EXPERIMENTAL_SETUP: Homo sapiens, PC-3, PC-3 cells
OBSERVATION_TYPE: pEC50
Remember, pEC50 is on a log scale: it is -log10 of the molar concentration.

Consider the compound shown here: COCc1ccccc1NCc1ccc([C@@H]2[C@H](O)CCCc3cncn32)c(-c2ccccc2Cl)c1 What is its recorded pEC50? 4.97

* * *

Test system: panel of cancer cell lines
PROCEDURE_DETAILS: Cell viability (CellTiter-Glo) dose-response across cancer cell line panel;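 further: after 72 h compound incubation with CellTiter-Glo ATP readout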
Type: cell-based, human
EXPERIMENTAL_SETUP: Homo sapiens, RT-112, RT-112
OBSERVATION_TYPE: EC50 (µM)
Numeric answer only, unit µM assumed.

Consider the compound shown here: NS(=O)(=O)OC[C@@H]1C[C@@H](n2ccc3c(N[C@H]4CCc5ccccc54)ncnc32)C[C@@H]1O What is its recorded EC50? 0.851

Consider the compound shown here: CC(C)C[C@H](NC(=O)[C@H](Cc1ccccc1)NC(=O)c1cnccn1)B(O)O What is its recorded EC50? 0.0052

Consider the compound shown here: COCc1ccccc1NCc1ccc([C@H]2[C@@H](O)CCCc3cncn32)c(-c2ccccc2Cl)c1 What is its recorded EC50? 5.73
